# Assay system: UniProt P22681
# Sequence (P22681 47-435): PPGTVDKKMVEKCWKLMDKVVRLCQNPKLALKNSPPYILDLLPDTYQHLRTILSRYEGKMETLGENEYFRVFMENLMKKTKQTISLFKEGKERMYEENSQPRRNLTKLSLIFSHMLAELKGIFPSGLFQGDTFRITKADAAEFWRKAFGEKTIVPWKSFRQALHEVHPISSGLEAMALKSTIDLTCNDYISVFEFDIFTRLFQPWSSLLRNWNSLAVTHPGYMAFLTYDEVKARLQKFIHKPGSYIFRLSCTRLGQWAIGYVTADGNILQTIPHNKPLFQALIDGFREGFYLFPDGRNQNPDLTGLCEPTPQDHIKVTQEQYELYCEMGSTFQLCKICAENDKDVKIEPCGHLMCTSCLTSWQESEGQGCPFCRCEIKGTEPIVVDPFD
# Assay notes: C-Cbl LCK Ub TR-FRET assay (c-cbl Lck HTRF)
# Type: biochemical
pIC50: −log10 of the molar value. Structures can show the parent of a compound that is named as a salt.
Outcome measure: pIC50

compound=CCSc1cc(C2(Cc3nncn3C)CCC2)cc(N2Cc3c(cc(CNC4(C)CCC4)cc3C(F)(F)F)C2=O)n1 outcome_measure=pIC50 quantitative_result=8.31
compound=CCOc1cc(N2Cc3c(cc(CNC4(C)CCC4)cc3C(F)(F)F)C2=O)cc(C2(Cc3nncn3C)COC2)c1 outcome_measure=pIC50 quantitative_result=7.77
compound=Cn1cnnc1CC1(c2cc(NC3CCCC3)nc(N3Cc4c(cc(CNC5(C)CCC5)cc4C(F)(F)F)C3=O)c2)COC1 outcome_measure=pIC50 quantitative_result=7.89
compound=Cn1cnnc1CC1(c2cc(OC3CCCC3)nc(N3Cc4c(cccc4C(F)(F)F)C3=O)c2)COC1 outcome_measure=pIC50 quantitative_result=5.14
compound=Cn1cnnc1[C@@H](F)C1(c2cccc(N3Cc4c(cc(CN)cc4C(F)(F)F)C3=O)c2)COC1 outcome_measure=pIC50 quantitative_result=6.47
compound=CC[C@@H]1CN(Cc2cc3c(c(C(F)(F)F)c2)CN(c2cccc(C4(Cc5nncn5C)CC(F)(F)C4)c2)C3=O)CCN1 outcome_measure=pIC50 quantitative_result=7.59
compound="CC(C)NCc1cc2c(c(C(F)(F)F)c1)CN(c1cccc(C3([C@@H](F)c4nncn4C)COC3)c1)C2=O [Compound 226, formate]" outcome_measure=pIC50 quantitative_result=7.48
